TESTED_TARGET: CSNK1D (Homo sapiens)
Construct: made in house
Sequence (P48730 whole entry, species assumed): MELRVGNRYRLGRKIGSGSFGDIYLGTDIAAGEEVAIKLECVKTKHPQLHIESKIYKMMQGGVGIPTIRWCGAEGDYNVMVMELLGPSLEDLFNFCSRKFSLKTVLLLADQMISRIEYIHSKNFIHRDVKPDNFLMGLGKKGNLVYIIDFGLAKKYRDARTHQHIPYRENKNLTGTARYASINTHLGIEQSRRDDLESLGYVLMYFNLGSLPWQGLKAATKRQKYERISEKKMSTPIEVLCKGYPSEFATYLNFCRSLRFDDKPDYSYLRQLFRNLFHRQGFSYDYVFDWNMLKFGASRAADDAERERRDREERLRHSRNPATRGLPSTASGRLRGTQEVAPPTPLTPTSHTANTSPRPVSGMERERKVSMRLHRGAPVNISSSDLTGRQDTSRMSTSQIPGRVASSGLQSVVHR
ASSAY_DETAILS: Liability panel screening by DSF: CSNK1D
Type: binding
STATED_CONDITIONS: DSF, 20 µM, n=2; read-out: Mean ΔTM CSNK1D
MEASUREMENT_TYPE: ΔTm at 20 µM (°C)

- COMPOUND: "CCCC1O[C@@H]2C[C@H]3[C@@H]4CCC5=CC(=O)C=C[C@]5(C)[C@H]4[C@@H](O)C[C@]3(C)[C@]2(C(=O)CO)O1 (stereo partly drawn) [Budesonide]"
  MEASURED_NUMBER: -0.0262
- COMPOUND: "C#C[C@]1(O)CC[C@H]2[C@@H]3CCc4cc(O)ccc4[C@H]3CC[C@@]21C [Ethinylestradiol]"
  MEASURED_NUMBER: 0.07
- COMPOUND: "N#Cc1ccc(N2N=C3c4ccc(C(=O)O)cc4CC[C@@H]3[C@@H]2C2CCCC2)cc1Cl [PF-03882845]"
  MEASURED_NUMBER: -4.9
- COMPOUND: "COc1ccc2c(c1)OC(C)(C)C(c1ccccc1)C2c1ccc(OCCN2CCCC2)cc1 (stereo not drawn) [Ormeloxifene]"
  MEASURED_NUMBER: -0.1
- COMPOUND: "C[C@H]1C[C@H]2[C@@H]3CCC4=CC(=O)C=C[C@]4(C)[C@@]3(Cl)[C@@H](O)C[C@]2(C)[C@@]1(O)C(=O)CO [Beclomethasone]"
  MEASURED_NUMBER: -0.04
- COMPOUND: "C[C@]12CC[C@@H]3c4ccc(O)cc4C[C@@H](CCCCCCCCC[S+]([O-])CCCC(F)(F)C(F)(F)F)[C@H]3[C@@H]1CC[C@@H]2O (stereo partly drawn) [Fulvestrant]"
  MEASURED_NUMBER: -4.77
- COMPOUND: "COc1cccc([C@@H](Oc2ccc3c(cnn3-c3ccc(F)cc3)c2)[C@H](C)NC(=O)C(F)(F)F)c1 [AZD5423]"
  MEASURED_NUMBER: -5.6
- COMPOUND: "CC/C(=C(/c1ccc(/C=C/C(=O)O)cc1)c1ccc2[nH]ncc2c1)c1ccc(F)cc1Cl [ARN810]"
  MEASURED_NUMBER: -4.37
- COMPOUND: "Oc1ccc(-c2nc3cc(O)cc(Br)c3o2)cc1 [WAY200070]"
  MEASURED_NUMBER: 2.57
- COMPOUND: "CC/C(=C(/CC)c1ccc(O)cc1)c1ccc(O)cc1 [Diethylstilbestrol]"
  MEASURED_NUMBER: -0.81
- COMPOUND: "O=C(/C=C/c1ccc(O)cc1)c1ccc(O)cc1O [Isoliquiritigenin]"
  MEASURED_NUMBER: 1.31
- COMPOUND: "N#CC(Cc1ccc(O)cc1)c1ccc(O)cc1 (stereo not drawn) [Diarylpropionitrile]"
  MEASURED_NUMBER: 0.0747
- COMPOUND: "CN(C)CCOc1ccc(/C(=C(/CCCO)c2ccccc2)c2ccc(O)cc2)cc1 [GSK5182]"
  MEASURED_NUMBER: -0.68
- COMPOUND: "Cc1ccc2c(NC[C@](O)(CC(C)(C)c3cc(F)cc4c3OCC4)C(F)(F)F)cccc2n1 [Mapracorat]"
  MEASURED_NUMBER: -0.78
- COMPOUND: "Cc1c(-c2ccc(O)cc2)n(Cc2ccc(OCCN3CCCCCC3)cc2)c2ccc(O)cc12 [Bazedoxifene]"
  MEASURED_NUMBER: 0.42

All values here come from paper PMC11790914.
